- Tested on: SK-MM-2 (Plasma Cell Myeloma);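 further: after 72 h of two-drug dosing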
- test: Bliss excess, mean over the matrix (fraction); higher = more synergy
Kindly supply the reported Bliss excess values for the records listed here.

Here's what some known entries look like.
compound="Cc1cc2ncnn2cc1Nc1ncc2c(n1)n(C1CCOCC1)c(=O)n2C [AZD7648] + O=C(c1cc(Cc2n[nH]c(=O)c3ccccc23)ccc1F)N1CCN(C(=O)C2CC2)CC1 [Olaparib] (first compound max 10 µM, 7x7, partner max 10 µM)" endpoint_value=-0.0204
compound="C=CCn1c(=O)c2cnc(Nc3ccc(N4CCN(C)CC4)cc3)nc2n1-c1cccc(C(C)(C)O)n1 [AZD1775] + CCc1c2c(nc3ccc(O)cc13)-c1cc3c(c(=O)n1C2)COC(=O)[C@]3(O)CC [SN-38] (first compound max 1 µM, partner max 0.3 µM)" endpoint_value=0.0271
compound="C[C@@H](Nc1cc(F)cc(F)c1)c1cc(C(=O)N(C)C)cc2c(=O)cc(N3CCOCC3)oc12 [AZD8186] + CC(=O)c1c(C)c2cnc(Nc3ccc(N4CCNCC4)cn3)nc2n(C2CCCC2)c1=O [Palbociclib] (first compound max 10 µM, 7x7, partner max 10 µM)" endpoint_value=0.0299

Task: Checklist item: Bliss excess tested on SK-MM-2 (Plasma Cell Myeloma), entry CN(C)CCCOc1ccc(-c2ccc3ncc4c(c3c2)n(C2CCOCC2)c(=O)n4C)cn1 [AZD0156] + CCN(CCO)CCCOc1ccc2c(Nc3cc(CC(=O)Nc4cccc(F)c4)[nH]n3)ncnc2c1 [AZD2811] (first compound max 1 µM, 7x7, partner max 1 µM) , value?;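 further: after 72 h of two-drug dosing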
Output: -0.0131
